What Complete Media was measured for each of the following?
- Tested on: NCI-H292 lung cancer cells
- METHOD_DESCRIPTION: FDA drug screening, complete media vs cholesterol-free media with simvastatin (TABLE 2)
- Type: cell-based, human
- PARTICULARS: NCI-H292 cells, complete media; cell growth value in FDA drug screen
Where a name gives a salt, the structure may show the parent alone.
# print the numeric value only

Prompt line: Sample C[C@]12CCC(=O)C=C1CC[C@@H]1[C@@H]2[C@@H](O)C[C@@]2(C)[C@H]1CC[C@]2(O)C(=O)CO [Hydrocortisone] — what was its Complete Media?
Response line: 0.4959

Prompt line: Same question for CCN(CCO)CCCC(C)Nc1ccnc2cc(Cl)ccc12 (centres unmarked) [Hydroxychloroquine sulfate] please.
Response line: 1.024

Prompt line: # repeat for CC1(C)O[C@@H]2C[C@H]3[C@@H]4C[C@H](F)C5=CC(=O)C=C[C@]5(C)[C@H]4[C@@H](O)C[C@]3(C)[C@]2(C(=O)CO)O1 [Flunisolide]
Response line: 0.6048

Prompt line: Next record, please: CC1CC(OC(=O)c2ccccc2O)CC(C)(C)C1 (centres unmarked) [Homosalate]
Response line: 1.442

Prompt line: Now consider O=P(O)(O)C(O)(Cc1cccnc1)P(=O)(O)O [Risedronate (sodium)] .
Response line: 0.9961

Prompt line: // same read-out, input: CC(=O)Oc1c(C)cc(OCC(O)CNC(C)C)c(C)c1C (centres unmarked) [Metipranolol hydrochloride]
Response line: 0.8617

Prompt line: Can you check CC12CC3CC(C)(C1)CC(N)(C3)C2 [Memantine (hydrochloride)] next?
Response line: 0.853

Prompt line: # repeat for COc1c(OCCCN2CCOCC2)ccc2c1N=C(NC(=O)c1cnc(N)nc1)N1CCN=C21 [Copanlisib (dihydrochloride)]
Response line: 0.3694

Prompt line: // repeat for CN(C)c1ccc2nc3ccc(=[N+](C)C)cc-3sc2c1 [Methylene blue (trihydrate)] and report
Response line: 0.39

Prompt line: Next entry: CN(C)C(=O)Oc1cc(OC(=O)N(C)C)cc(C(O)CNC(C)(C)C)c1 (centres unmarked) [Bambuterol hydrochloride]
Response line: 1.226

Prompt line: Repeat for the following compound: "O=C(O)c1cc(=O)[nH]c(=O)[nH]1"
Response line: 1.261

Prompt line: Now consider Cc1ncc(C[n+]2csc(CCO)c2C)c(N)n1 [Thiamine (hydrochloride)] and answer again.
Response line: 1.117

Prompt line: Try "CC(C)OC(=O)CNc1cccc(CN(Cc2ccc(-n3cccn3)cc2)S(=O)(=O)c2cccnc2)n1" next.
Response line: 1.286

Prompt line: And then CCCCCCCCc1ccc(CCC(N)(CO)CO)cc1 [Fingolimod (hydrochloride)] , what is it?
Response line: 1.023

Prompt line: Next compound: "Cn1c(=O)c2[nH]c(Br)nc2n(C)c1=O"
Response line: 0.9433

Prompt line: Quick one: "COC[C@H]1C[C@@H](c2nc(-c3ccc4c(c3)COc3cc5c(ccc6nc([C@@H]7CC[C@H](C)N7C(=O)[C@@H](NC(=O)OC)C(C)C)[nH]c65)cc3-4)c[nH]2)N(C(=O)[C@H](NC(=O)OC)c2ccccc2)C1"
Response line: 0.7768

Prompt line: Same for CCCCc1oc2ccccc2c1C(=O)c1cc(I)c(OCCN(CC)CC)c(I)c1 [Amiodarone (hydrochloride)]
Response line: 1.107

Prompt line: Another compound: "C[C@@H]1CCN(C(=O)CC#N)C[C@@H]1N(C)c1ncnc2[nH]ccc12"
Response line: 1.224

Prompt line: Try this compound too: O=C1CC2(CCCC2)CC(=O)N1CCCCN1CCN(c2ncccn2)CC1 [Buspirone (hydrochloride)]
Response line: 0.9935

Prompt line: Next up: CCCCNc1cc(C(=O)O)cc(S(N)(=O)=O)c1Oc1ccccc1 [Bumetanide]
Response line: 1.138

Prompt line: Thanks! And "CCOC(=O)C1=C[C@]2(CC)CCCN3CCc4c(n1c1ccccc41)[C@@H]32" ?
Response line: 0.8952

Prompt line: Record: COc1ccccc1N1CCN(CC(O)COc2cccc3ccccc23)CC1 (centres unmarked)
Response line: 0.763

Prompt line: Try CC(C)NCC(O)COc1ccc(CC(N)=O)cc1 (centres unmarked) next.
Response line: 1.006
